- assayProcedure: Host cell cytotoxicity assay (Cell-Titer Glo), Vero cells
- Format: cell-based
- measurementContext: African green monkey; 10 μM, 48 h, Vero cells; DMSO = 100%; read-out: Host Viability (%)
Items are presented alongside their recorded viability at 48 h, 10 µM.
Write down the numeric answer in % and omit the unit.

INSERT INTO results (compound, recordednumber) VALUES
  ('CC(C)C[C@H]1C(=O)N2CCC[C@H]2[C@]2(O)O[C@](NC(=O)[C@@H]3C=C4c5cccc6[nH]c(Br)c(c56)C[C@H]4N(C)C3)(C(C)C)C(=O)N12 [Bromocriptine]', 85);

(Q) Look up viability at 48 h, 10 µM: OCCOCCN1CCN(C(c2ccccc2)c2ccc(Cl)cc2)CC1 (centres unmarked) [Hydroxyzine]
(A) 101

* * *

- Test system: HFF cells
- assayProcedure: Host cell cytotoxicity assay (Cell-Titer Glo), HFF cells
- Assay type: cell-based, human
- measurementContext: 25 μM, 48 h, HFF cells; compared with DMSO
Listed next: entries and their corresponding Host cell viability (%).
Write the number in % without appending the unit.

Known results for compounds:
INSERT INTO measurements (compound, recordednumber) VALUES
  ('Cc1ccc(C(=O)c2cc(/C=C/C(=O)NO)n(C)c2)cc1', 95),
  ('Cc1coc2c1C(=O)C(=O)c1c-2ccc2c1CCCC2(C)C', 75),
  ('CCCCC/C=C\C/C=C\C/C=C\C/C=C\CCCC(=O)Nc1ccc(O)cc1', 86);

Here is the next item to consider.
(Q) Given the compound OCCOCCN1CCN(C(c2ccccc2)c2ccc(Cl)cc2)CC1 (stereo not shown) [Hydroxyzine] , what is its reported Host cell viability (%)?
(A) 100

* * *

- assayProcedure: Host cell cytotoxicity assay (Cell-Titer Glo), HFF cells
- Format: cell-based, human
- measurementContext: human, HFF cells, 2.5 μM, 48 h, HFF cells; read-out: Host cell viability (%)
observedProperty: viability at 48 h, 2.5 µM (%)
Numeric answer only, unit % assumed.

INSERT INTO assay_data (compound, observedproperty, recordednumber) VALUES
  ('OCCOCCN1CCN(C(c2ccccc2)c2ccc(Cl)cc2)CC1 (centres unmarked) [Hydroxyzine]', 'viability at 48 h, 2.5 µM', 102);

Now examine the next entry.
(Q) I'd like to know its viability at 48 h, 2.5 µM. The compound in question is "CC(C)C[C@H]1C(=O)N2CCC[C@H]2[C@]2(O)O[C@](NC(=O)[C@@H]3C=C4c5cccc6[nH]c(Br)c(c56)C[C@H]4N(C)C3)(C(C)C)C(=O)N12"
(A) 98

* * *

- assayProcedure: Host cell cytotoxicity assay (Cell-Titer Glo), HFF cells
- Assay type: cell-based, human
- measurementContext: human, 2.5 μM, 48 h, HFF cells; read-out: Host cell viability (%)
- Description: Vero cells and HFF cells were both used as host cells because both cell types were used for the parasite screening. After incubation for 48 h in DMEM supplemented with 5% FBS, L-glutamine, penicillin, and streptomycin, cell viabilities were measured by using a Cell-Titer Glo kit (Promega) following the manufacturer’s instructions. Control wells were treated with DMSO alone in culture medium to calculate the 100% viability for each cell type.
observedProperty: viability at 2.5 µM (%)
Provide the reading as a plain figure in %.

(Q) Need viability at 2.5 µM, item "Cc1coc2c1C(=O)C(=O)c1c-2ccc2c1CCCC2(C)C"
(A) 99

* * *

- assayProcedure: Host cell cytotoxicity assay (Cell-Titer Glo), HFF cells
- Type: cell-based, human
- measurementContext: human, Host cell viability (%)
observedProperty: viability at 48 h, 25 µM

INSERT INTO assay_data (compound, observedproperty, result) VALUES
  ('OCCN1CCN(CCCN2c3ccccc3Sc3ccc(C(F)(F)F)cc32)CC1 [FLUPHENAZINE]', 'viability at 48 h, 25 µM', '84%');

(Q) Please report the recorded viability at 48 h, 25 µM for O=C1[C@H]2CCCC[C@H]2C(=O)N1CCCCN1CCN(c2nsc3ccccc23)CC1 [Perospirone] .
(A) 101%

(Q) Entry under review: COc1ccc2[nH]c([S+]([O-])Cc3ncc(C)c(OC)c3C)nc2c1 (centres unmarked) [Omeprazole] . Reported viability at 48 h, 25 µM?
(A) 100%

* * *

The following molecules are listed with their measured viability at 48 h, 10 µM values.
- assayProcedure: Host cell cytotoxicity assay (Cell-Titer Glo), Vero cells
- Format: cell-based
- measurementContext: African green monkey
I only need the number, in %, no unit after it.

INSERT INTO results (molecule, observedproperty, recordednumber) VALUES
  ('COc1ccc(C(=O)/C(Cc2cc(OC)c(OC)c(OC)c2)=C(\C(=O)O)c2ccc3c(c2)OCO3)cc1', 'viability at 48 h, 10 µM', 85),
  ('O=C1[C@H]2CCCC[C@H]2C(=O)N1CCCCN1CCN(c2nsc3ccccc23)CC1 [Perospirone]', 'viability at 48 h, 10 µM', 96);

(Q) Data request, read-out viability at 48 h, 10 µM, for OCCN1CCN(CCCN2c3ccccc3Sc3ccc(Cl)cc32)CC1 [Perphenazine]
(A) 84

(Q) // query viability at 48 h, 10 µM value for entry CCN(CC)CCNc1ccc(CO)c2sc3ccccc3c(=O)c12 [Hycanthone]
(A) 82

(Q) Given the entry Clc1ccccc1C(c1ccccc1)(c1ccccc1)n1ccnc1 [Clotrimazol] , report its measured viability at 48 h, 10 µM.
(A) 94

* * *

- assayProcedure: Host cell cytotoxicity assay (Cell-Titer Glo), HFF cells
- Format: cell-based, human
- measurementContext: human, Host cell viability (%)
observedProperty: viability at 48 h, 25 µM
Please state the number and follow it with the unit.

INSERT INTO measurements (compound, result) VALUES
  ('OCCN1CCN(CCCN2c3ccccc3Sc3ccc(Cl)cc32)CC1', '65%'),
  ('Nc1ccccc1NC(=O)c1ccc(CNC(=O)OCc2cccnc2)cc1', '91%'),
  ('OC(c1cc(C(F)(F)F)nc2c(C(F)(F)F)cccc12)C1CCCCN1 (centres unmarked)', '48%'),
  ('O=c1[nH]c2ccccc2n1CCCN1CCC(n2c(=O)[nH]c3cc(Cl)ccc32)CC1', '83%');

Here is the next item to consider.
(Q) Can you share its viability at 48 h, 25 µM? I mean this compound: "O=C(/C=C/c1ccc(O)c(O)c1)c1ccc(O)cc1O"
(A) 91%

* * *

Listing of entries alongside the reported viability at 48 h, 10 µM.
- assayProcedure: Host cell cytotoxicity assay (Cell-Titer Glo), Vero cells
- Format: cell-based
- measurementContext: African green monkey

INSERT INTO results (compound, observedproperty, result) VALUES
  ('OC(c1cc(C(F)(F)F)nc2c(C(F)(F)F)cccc12)C1CCCCN1 (stereo not drawn)', 'viability at 48 h, 10 µM', '87%'),
  ('Nc1ccccc1NC(=O)c1ccc(CNC(=O)OCc2cccnc2)cc1', 'viability at 48 h, 10 µM', '83%');

Turning now to a further compound:
(Q) # get_value(readout='viability at 48 h, 10 µM', item= COc1ccc2[nH]c([S+]([O-])Cc3ncc(C)c(OC)c3C)nc2c1 (stereo not drawn) )
(A) 97%
